The reported measurements were obtained from ChEMBL document CHEMBL1152373.

# Test system: NCI/ADR-RES
# method: Reversal of P-gp-mediated multidrug resistance in human MCF7/ADR cells assessed as modulation factor, ratio of adriamycin IC50 without drug to adriamycin IC50 with drug at 10 uM after 72 hrs by MTT assay
# Type: cell-based
Can you tell me Ratio IC50 for the items I'm about to list?
Answers are plain numbers.

// for each molecule below, give its Ratio IC50
1. COc1ccc(-c2oc3c(CC=C(C)C)c(O)cc(O)c3c(=O)c2O[C@@H]2O[C@@H](C)[C@H](O)[C@@H](O)[C@H]2O)cc1
2. COc1ccc(-c2oc3c(CC=C(C)C)c(O)cc(O)c3c(=O)c2O)cc1
3. COc1ccc(-c2oc3c(CC=C(C)C)c(OS(C)(=O)=O)cc(O)c3c(=O)c2OS(C)(=O)=O)cc1

1: 1.39; 2: 4.96; 3: 1.36

---

# method: Cytotoxicity against human MCF7/ADR cells after 72 hrs by MTT assay
# Type: functional, cell-based
# experimental_context: NCI/ADR-RES
readout_label: pIC50
One number for each entry, as −log10 of the molar value.

May I ask what pIC50 has been recorded for COc1ccc(-c2oc3c4c(cc(O)c3c(=O)c2OS(N)(=O)=O)OC(C)(C)CC4)cc1 ? 4.04

Then there is this compound:
May I ask what pIC50 has been recorded for COc1ccc(-c2oc3c(CC=C(C)C)c(O[C@@H]4O[C@H](CO)[C@@H](O)[C@H](O)[C@H]4O)cc(O)c3c(=O)c2O)cc1 ? 4.22

---

Can you tell me IC50 for the items I'm about to list?
# method: Cytotoxicity against human MCF7/ADR cells after 72 hrs by MTT assay
# Assay type: functional, cell-based
# experimental_context: NCI/ADR-RES
Give bare numbers, in µM.

// for each molecule below, give its IC50
1. COc1cccc2c1C(=O)c1c(O)c3c(c(O)c1C2=O)C[C@@](O)(C(=O)CO)C[C@@H]3O[C@H]1C[C@H](N)[C@H](O)[C@H](C)O1 [DOXORUBICIN]
2. COc1ccc(-c2oc3c(CCC(C)(C)OC)c(O)cc(O)c3c(=O)c2O)cc1

25.3
20.9

May I ask what IC50 has been recorded for COc1ccc(-c2oc3c4c(cc(O)c3c(=O)c2OS(C)(=O)=O)OC(C)(C)CC4)cc1 ? 55

---

Can you tell me pIC50 for the items I'm about to list?
# method: Cytotoxicity against human MCF7/ADR cells after 72 hrs by MTT assay
# Assay type: functional, cell-based
# experimental_context: NCI/ADR-RES
Answers are plain numbers, as −log10 of the molar value.

May I ask what pIC50 has been recorded for COc1ccc(-c2oc3c(CC=C(C)C)c(OS(C)(=O)=O)cc(O)c3c(=O)c2OS(C)(=O)=O)cc1 ? 4.09

Then there is this molecule:
May I ask what pIC50 has been recorded for COc1ccc(-c2oc3c(CC=C(C)C)c(O)cc(O)c3c(=O)c2O)cc1 ? 4.28

---

Can you tell me inhibition at 2 h, 50 µM for the items I'm about to list?
# system_name: P-gp (ABCB1) (Homo sapiens)
# Sequence (P08183 whole entry): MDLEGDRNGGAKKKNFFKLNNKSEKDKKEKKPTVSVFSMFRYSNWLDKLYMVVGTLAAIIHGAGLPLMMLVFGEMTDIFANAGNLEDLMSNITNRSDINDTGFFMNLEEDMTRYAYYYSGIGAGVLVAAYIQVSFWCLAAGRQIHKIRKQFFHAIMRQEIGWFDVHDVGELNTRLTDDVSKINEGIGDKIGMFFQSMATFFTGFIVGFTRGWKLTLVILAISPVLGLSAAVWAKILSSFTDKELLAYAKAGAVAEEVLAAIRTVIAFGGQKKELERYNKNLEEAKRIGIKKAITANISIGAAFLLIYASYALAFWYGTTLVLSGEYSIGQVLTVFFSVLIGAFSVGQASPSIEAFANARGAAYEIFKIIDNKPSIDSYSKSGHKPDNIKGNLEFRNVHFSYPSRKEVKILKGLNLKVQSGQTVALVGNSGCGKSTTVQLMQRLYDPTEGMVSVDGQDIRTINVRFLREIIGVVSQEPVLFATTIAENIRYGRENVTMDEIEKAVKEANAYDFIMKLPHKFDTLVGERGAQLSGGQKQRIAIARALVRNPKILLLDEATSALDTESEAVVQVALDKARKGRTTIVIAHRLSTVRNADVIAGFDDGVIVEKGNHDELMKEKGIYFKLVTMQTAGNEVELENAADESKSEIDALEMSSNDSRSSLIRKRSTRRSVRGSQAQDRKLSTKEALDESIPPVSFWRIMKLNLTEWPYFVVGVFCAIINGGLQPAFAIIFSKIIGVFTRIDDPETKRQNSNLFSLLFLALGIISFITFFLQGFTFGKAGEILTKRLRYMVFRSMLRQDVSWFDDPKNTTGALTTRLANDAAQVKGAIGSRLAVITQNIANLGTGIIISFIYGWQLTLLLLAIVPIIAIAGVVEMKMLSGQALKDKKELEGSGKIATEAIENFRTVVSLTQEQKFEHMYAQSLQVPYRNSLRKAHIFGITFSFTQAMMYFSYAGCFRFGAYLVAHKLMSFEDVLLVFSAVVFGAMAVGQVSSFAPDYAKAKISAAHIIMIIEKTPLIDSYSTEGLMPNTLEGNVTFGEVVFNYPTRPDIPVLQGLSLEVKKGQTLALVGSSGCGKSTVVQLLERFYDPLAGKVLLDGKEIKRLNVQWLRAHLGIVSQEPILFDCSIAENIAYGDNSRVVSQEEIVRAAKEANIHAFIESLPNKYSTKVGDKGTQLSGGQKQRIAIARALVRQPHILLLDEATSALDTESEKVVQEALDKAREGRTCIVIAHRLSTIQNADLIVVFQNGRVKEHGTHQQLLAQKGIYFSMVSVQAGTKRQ
# method: Inhibition of P-gp in human Caco-2 cells assessed as decrease in efflux permeability from basolateral to apical side at 50 uM after 120 mins
# Assay type: cell-based
One number for each entry, in %.

May I ask what inhibition at 2 h, 50 µM has been recorded for COc1ccc(-c2oc3c(CC=C(C)C)c(O)cc(O)c3c(=O)c2O)cc1 ? 41.9

***
May I ask what inhibition at 2 h, 50 µM has been recorded for COc1ccc(-c2oc3c4c(cc(O)c3c(=O)c2O)OC(C)(C)CC4)cc1 ? 39.6

---

# Test system: NCI/ADR-RES
# method: Reversal of P-gp-mediated multidrug resistance in human MCF7/ADR cells assessed as modulation factor, ratio of adriamycin IC50 without drug to adriamycin IC50 with drug at 10 uM after 72 hrs by MTT assay
# Type: cell-based
hey, just use label 1 if measured Ratio IC50 is less than 2, otherwise label 0

Examples with answers:
Please indicate whether the reported Ratio IC50 of COc1ccc(-c2oc3c(CC=C(C)C)c(O[C@@H]4O[C@H](CO)[C@@H](O)[C@H](O)[C@H]4O)cc(O)c3c(=O)c2O[C@@H]2O[C@@H](C)[C@H](O)[C@@H](O)[C@H]2O)cc1 [ICARIIN] is strictly below 2. label 1

Please indicate whether the reported Ratio IC50 of COc1ccc(-c2oc3c(CC=C(C)C)c(O[C@@H]4O[C@H](CO)[C@@H](O)[C@H](O)[C@H]4O)cc(O)c3c(=O)c2O)cc1 is strictly below 2. label 1

Please indicate whether the reported Ratio IC50 of COc1ccc(-c2oc3c4c(cc(O)c3c(=O)c2OS(C)(=O)=O)OC(C)(C)CC4)cc1 is strictly below 2. label 0

***
Please indicate whether the reported Ratio IC50 of COc1ccc(-c2oc3c4c(cc(O)c3c(=O)c2O)OC(C)(C)CC4)cc1 is strictly below 2. label 0

Please indicate whether the reported Ratio IC50 of COc1ccc(-c2oc3c4c(cc(O)c3c(=O)c2O)OC(C)(C)CC4)cc1S(=O)(=O)O is strictly below 2. label 0

Please indicate whether the reported Ratio IC50 of COc1ccc(-c2oc3c(CCC(C)(C)OC)c(O)cc(O)c3c(=O)c2O)cc1 is strictly below 2. label 0

Please indicate whether the reported Ratio IC50 of COc1ccc(-c2oc3c4c(cc(O)c3c(=O)c2OS(N)(=O)=O)OC(C)(C)CC4)cc1 is strictly below 2. label 1
